MEASURED ON: α-chymotrypsin (Bos taurus)
Construct: purchased Sigma Chem. Co. C-3142
EXPERIMENT SUMMARY: Inhibition of α-chymotrypsin
Format: biochemical
PROTOCOL CONDITIONS: Table II; 10 uM; read-out: Chymotrypsin % I @ 10 uM
Square brackets hold non-standard residues; d marks the D form. Peptide text beside a SMILES is read from it. * marks the point of attachment. ξ: configuration not given here. ξF = NC(Cc1ccccc1)C(=O)O; Bn = c1ccc(C*)cc1; Ms = CS(=O)(=O)*; CH2F = FC*
Decision: inhibition at 10 µM >= 10% yields yes, all other cases yield no.

Worked cases, answers included:
Prompt: Decide: is the reported value of inhibition at 10 µM for CC(C)(C)OC(=O)N[C@H](CC(=O)N1CCc2ccccc2C1)C(=O)N[C@H](C=O)Cc1ccccc1 equal to or greater than 10%?
Response: yes

Prompt: Ok, now CS(=O)(=O)N[C@H](CSCc1ccccc1)C(=O)NC(Cc1ccccc1)C(=O)CF (some centres unmarked) [Compound 33, BnS--CH2 CH(NHS(=O)2 CH3)C(=O)-Phe--CH2] (Ms-[dC](Bn)-[ξF]-CH2F)
Response: yes

Prompt: Can you check CS(=O)(=O)N[C@H](COCc1ccccc1)C(=O)NC(Cc1ccccc1)C(=O)CF (some centres unmarked) next?
Response: yes

Prompt: What do you get for CS(=O)(=O)N[C@H](CC(=O)N1CCc2ccccc2C1)C(=O)N[C@H](C=O)Cc1ccccc1 ?
Response: yes

Prompt: Next: CS(=O)(=O)N[C@H](CC(=O)N1CCc2ccccc2C1)C(=O)NC(Cc1ccccc1)C(=O)CF (some centres unmarked)
Response: no

Prompt: // query: CS(=O)(=O)N[C@H](COCc1ccccc1)C(=O)N[C@H](C=O)Cc1ccccc1
Response: yes

Next:
Prompt: Assess whether reported inhibition at 10 µM for CC(=O)N[C@H](CSCc1ccccc1)C(=O)N[C@H](C=O)Cc1ccccc1 [Compound 25, BnS--CH2 CH(NHC(=O)CH3)C(=O)-Phe--H] (Ac-[dC](Bn)-Phe-aldehyde) sits at 10% or higher.
Response: no

Prompt: Entry to check: CC(=O)N[C@H](CC(=O)N1CCc2ccccc2C1)C(=O)N[C@H](C=O)Cc1ccccc1
Response: no

###

MEASURED ON: thrombin (Homo sapiens, UniProt P00734)
Construct: purchased Sigma Chem. Co. T-7009
EXPERIMENT SUMMARY: Inhibition of thrombin
Assay type: biochemical
PROTOCOL CONDITIONS: Table III; 10 uM; read-out: Thrombin % I @ 10 uM
Known inhibition at 10 µM of a selection of compounds
A complete answer gives the number and then names the unit.

Previously resolved entries follow.
Prompt: Any idea what inhibition at 10 µM was measured for CS(=O)(=O)N[C@H](COCc1ccccc1)C(=O)N[C@H](C=NO)Cc1ccccc1 ?
Response: 0%

Prompt: Next compound: CS(=O)(=O)N[C@@H](C(=O)N[C@H](C=O)Cc1ccccc1)c1cccs1
Response: 16%

More entries:
Prompt: Value lookup for inhibition at 10 µM; key = CS(=O)(=O)N[C@H](COCc1ccccc1)C(=O)N[C@@H](Cc1ccccc1)C(O)OCc1ccccc1 (stereo partly shown)
Response: 0%

Prompt: Another compound: O=C[C@H](Cc1ccccc1)NC(=O)[C@@H](COCc1ccccc1)NC(=O)c1ccccc1
Response: 7%

###

MEASURED ON: cathepsin B (Homo sapiens)
Construct: purchased Calbiochem 219364
EXPERIMENT SUMMARY: Inhibition of cathepsin B
Format: biochemical
PROTOCOL CONDITIONS: Table III; 1 uM; read-out: Cat B % I @ 1 uM
MEASURE NAME: inhibition at 1 µM (%)
Write down the numeric answer in % and omit the unit.

Some entries whose results are on file:
Prompt: For CS(=O)(=O)N[C@H](C(=O)N[C@H](C=O)Cc1ccccc1)c1cccs1 [Compound 97] , what is its reported inhibition at 1 µM?
Response: 89

Prompt: Can you handle Cc1noc(C)c1S(=O)(=O)N[C@H](COCc1ccccc1)C(=O)N[C@H](C=O)Cc1ccccc1 [Compound 55] next?
Response: 90

Prompt: Same for O=C[C@H](Cc1ccccc1)NC(=O)[C@@H](COCc1ccccc1)NC(=O)C(c1ccccc1)c1ccccc1 [Compound 45]
Response: 100

Prompt: What about CS(=O)(=O)N[C@H](CS(=O)(=O)Cc1ccccc1)C(=O)N[C@H](C=O)Cc1ccccc1 [Compound 80] ?
Response: 99

Prompt: Also check Cc1ccc(S(=O)(=O)O[C@H]2C[C@H](C(=O)N[C@H](C=O)Cc3ccccc3)N(S(=O)(=O)c3ccccc3)C2)cc1 [Compound 113]
Response: 47

More entries:
Prompt: Name the reported inhibition at 1 µM value associated with the compound O=C[C@H](Cc1ccccc1)NC(=O)[C@@H](COCc1ccccc1)NS(=O)(=O)c1cccs1 [Compound 54]
Response: 100

Prompt: Could you do the same for CON=C[C@H](Cc1ccccc1)NC(=O)[C@@H](COCc1ccccc1)NS(C)(=O)=O [Compound 119] , please?
Response: 68

###

MEASURED ON: α-chymotrypsin (Bos taurus, UniProt P00766)
Construct: purchased Sigma Chem. Co. C-3142
EXPERIMENT SUMMARY: Inhibition of α-chymotrypsin
Assay type: biochemical
PROTOCOL CONDITIONS: Table III; 10 uM
# Chymotrypsin % I @ 10 uM per entry
# number then unit; no other words

Here is how some compounds turned out for Chymotrypsin % I @ 10 uM.
Prompt: What Chymotrypsin % I @ 10 uM value was documented for this compound, CS(=O)(=O)N1Cc2ccccc2CC1C(=O)N[C@H](C=O)Cc1ccccc1 (single isomer, unassigned) [Compound 95] ?
Response: 0%

Prompt: And the next one, CS(=O)(=O)N1Cc2ccccc2CC1C(=O)N[C@H](C=O)Cc1ccccc1 (single isomer, unassigned) [Compound 96] ?
Response: 14%

Prompt: Try this compound next: CS(=O)(=O)NC(CCSCc1ccccc1)C(=O)N[C@H](C=O)Cc1ccccc1 (single isomer, unassigned) [Compound 108]
Response: 0%

Continuing:
Prompt: Endpoint output: Chymotrypsin % I @ 10 uM of CS(=O)(=O)NC(CCSCc1ccccc1)C(=O)N[C@H](C=O)Cc1ccccc1 (single isomer, unassigned) [Compound 107] . Value?
Response: 11%

###

UniProt P07711: recorded IC50 for assorted compounds
Sequence (P07711 114-288 limits assumed): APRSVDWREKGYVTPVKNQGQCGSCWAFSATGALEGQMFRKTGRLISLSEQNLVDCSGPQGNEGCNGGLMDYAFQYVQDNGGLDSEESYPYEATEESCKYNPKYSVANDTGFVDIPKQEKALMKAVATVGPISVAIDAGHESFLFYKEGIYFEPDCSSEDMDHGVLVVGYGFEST
Sequence (P07711 292-333 limits assumed): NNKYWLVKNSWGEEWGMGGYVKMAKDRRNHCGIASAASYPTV
Square brackets hold non-standard residues; d marks the D form. Peptide text beside a SMILES is read from it. * marks the point of attachment. Bn = c1ccc(C*)cc1
Express the result in nM but write the number alone.

Previously resolved entries follow.
Prompt: Query (compound): CS(=O)(=O)N[C@H](COCc1ccccc1)C(=O)NC(Cc1ccccc1)C(=O)CF (stereo partly shown) ; field requested: IC50
Response: 1800

Prompt: Cool, now CS(=O)(=O)N[C@H](CC(=O)N1CCc2ccccc2C1)C(=O)NC(Cc1ccccc1)C(=O)CF (stereo partly shown)
Response: 1800

Prompt: What do you get for CC(=O)N[C@H](CSCc1ccccc1)C(=O)N[C@H](C=O)Cc1ccccc1 [Compound 25, BnS--CH2 CH(NHC(=O)CH3)C(=O)-Phe--H] (Ac-[dC](Bn)-Phe-aldehyde) ?
Response: 48

Shift focus to the following entry.
Prompt: Please report the recorded IC50 for CS(=O)(=O)N[C@H](COCc1ccccc1)C(=O)N[C@H](C=O)Cc1ccccc1 .
Response: 9

###

MEASURED ON: α-chymotrypsin (Bos taurus)
Construct: purchased Sigma Chem. Co. C-3142
EXPERIMENT SUMMARY: Inhibition of α-chymotrypsin
Type: biochemical
PROTOCOL CONDITIONS: Table III; 10 uM; read-out: Chymotrypsin % I @ 10 uM
Square brackets hold non-standard residues; d marks the D form. Peptide text beside a SMILES is read from it. * marks the point of attachment. Bn = c1ccc(C*)cc1; Ms = CS(=O)(=O)*
MEASURE NAME: inhibition at 10 µM (%)
# number only, unit % dropped from output

Check out these entries, answers already filled in.
Prompt: Hello, I am looking for reported inhibition at 10 µM with α-chymotrypsin (Bos taurus) for O=C[C@H](Cc1ccccc1)NC(=O)[C@@H](COCc1ccccc1)NS(=O)(=O)c1cccs1 [Compound 54] . Could you help?
Response: 3

Prompt: Moving on to CC(C)(C)OC(=O)N[C@H](COCc1ccccc1)C(=O)N[C@H](C=O)Cc1ccccc1 [Compound 82]
Response: 8

Prompt: Now the compound CS(=O)(=O)N[C@H](Cc1ccccc1)C(=O)N[C@H](C=O)Cc1ccccc1 [Compound 70] (Ms-[dF]-Phe-aldehyde)
Response: 12

Further cases:
Prompt: # get_value(readout= inhibition at 10 µM, system= α-chymotrypsin (Bos taurus)) for CN(Cc1ccccc1)C(=O)C[C@@H](NS(C)(=O)=O)C(=O)N[C@H](C=O)Cc1ccccc1 [Compound 78]
Response: 0

Prompt: Next: Cc1ccc(S(=O)(=O)N[C@H](COCc2ccccc2)C(=O)N[C@H](C=O)Cc2ccccc2)cc1 [Compound 49]
Response: 1

Prompt: Similarly, CS(=O)(=O)N[C@H](CSCc1ccccc1)C(=O)N[C@H](C=O)Cc1ccccc1 [Compound 106] (Ms-[dC](Bn)-Phe-aldehyde) ?
Response: 16

Prompt: // repeat for CS(=O)(=O)N[C@H](COCc1ccccc1)C(=O)N[C@@H](Cc1ccccc1)C(O)CCc1ccccc1 (stereo partly shown) [Compound 124] and report
Response: 0
